Measured CAR-J2 EC50 (PGLALA-CAR-J activation, L363 target cells) by item
experimental.system: human GPRC5D (human, UniProt Q9NZD1 1-345)
Sequence (Q9NZD1 whole entry): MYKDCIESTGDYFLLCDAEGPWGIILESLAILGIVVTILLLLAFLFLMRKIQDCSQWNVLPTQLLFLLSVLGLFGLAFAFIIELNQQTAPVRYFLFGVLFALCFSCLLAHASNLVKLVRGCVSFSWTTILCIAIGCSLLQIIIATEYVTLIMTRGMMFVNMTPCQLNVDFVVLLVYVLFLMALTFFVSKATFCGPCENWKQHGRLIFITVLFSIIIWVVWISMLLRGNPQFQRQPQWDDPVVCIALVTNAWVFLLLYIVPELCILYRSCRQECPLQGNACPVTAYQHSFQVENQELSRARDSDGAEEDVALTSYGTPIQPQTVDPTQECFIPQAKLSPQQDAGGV
experiment.description: cell-based or functional assay
Report the value in ng/mL with no unit label.

# binder, value.measured
data = [
    ("P1AE5733 (antibody, V domains shown) VH: EVQLVESGGGLVQPGRSLKLSCAASGFSFSNYGMAWVRQAATKGLEWVASISTGGGNTYYRDSVKGRFIVSRDNAKNTQYLQMDSLRSEDTATYYCTRHDRGGLYWGQGVMVTVSS VL: DIVMTQAPLSVSVTPGESASISCRSSKSLLHSNGITYVYWYFQKPGKSPQVLIYRMSNLASGVPDRFSGSGSETDFTLKISRVEAEDVGIYHCGQLLENPYTFGAGTELELK", 2.65),
    ("P1AE5739 (antibody, V domains shown) VH: EVQLVESGGGVVQPGRSLRLSCAASGFSFSNYGMAWVRQAPGKGLEWVASISTGGGNTYYRDSVKGRFTISRDNAKNTLYLQMNSLRAEDTAVYYCTRHDRGGLYWGQGTMVTVSS VL: DIVMTQSPLSLPVTPGEPASISCRSSKSLLHSNGITYVYWYLQKPGQSPQVLIYRMSNLASGVPDRFSGSGSGTDFTLKISRVEAEDVGVYHCGQLLENPYTFGQGTKLEIK", 23.5),
    ("P1AE5741 (antibody, V domains shown) VH: EVQLVESGGGVVQPGRSLRLSCAASGFSFSNYGMAWVRQAPGKGLEWVASISTGGGNTYYRDSVKGRFTISRDNAKNTLYLQMNSLRAEDTAVYYCTRHDRGGLYWGQGTMVTVSS VL: DIVMTQSPLSLPVTPGEPASISCRSSKSLLHSNGITYVYWYLQKPGQSPQLLIYRMSNRASGVPDRFSGSGSGTDFTLKISRVEAEDVGVYHCGQLLENPYTFGQGTKLEIK", 1.4),
    ("P1AE5761 (antibody, V domains shown) VH: EVQLVESGGGLVQPGGSLRLSCAASGFSFSNYGMAWVRQAPGKGLEWVASISTGGGNTYYADSVKGRFTISRDNAKNTLYLQMNSLRAEDTAVYYCTRHDRGGLYWGQGTMVTVSS VL: DIVMTQSPLSLPVTPGEPASISCRSSKSLLHSNGITYVYWYLQKPGKSPQVLIYRMSNLASGVPDRFSGSGSGTDFTLKISRVEAEDVGVYHCGQLLENPYTFGQGTKLEIK", 74.6),
    ("P1AE5763 (antibody, V domains shown) VH: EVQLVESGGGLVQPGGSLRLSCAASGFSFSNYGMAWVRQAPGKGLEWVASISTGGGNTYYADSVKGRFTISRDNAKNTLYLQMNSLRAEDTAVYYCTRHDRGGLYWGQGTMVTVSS VL: DIVMTQSPDSLAVSLGERATINCKSSKSLLHSNGITYVYWYQQKPGQPPKLLIYRMSNLASGVPDRFSGSGSGTDFTLTISSLQAEDVAVYHCGQLLENPYTFGQGTKLEIK", 5.47),
]

Okay, next one:
Reported CAR-J2 EC50 (PGLALA-CAR-J activation, L363 target cells) for P1AE5740 (antibody, V domains shown) VH: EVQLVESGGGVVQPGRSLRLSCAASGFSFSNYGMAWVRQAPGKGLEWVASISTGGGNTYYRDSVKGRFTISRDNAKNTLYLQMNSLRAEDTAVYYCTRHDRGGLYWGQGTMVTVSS VL: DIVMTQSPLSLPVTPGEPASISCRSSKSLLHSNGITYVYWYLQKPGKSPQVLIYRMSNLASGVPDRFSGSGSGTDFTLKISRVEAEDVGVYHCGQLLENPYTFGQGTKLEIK was 8.96
